Target: Interstitial collagenase (Homo sapiens, UniProt P03956)
Sequence (P03956 whole entry): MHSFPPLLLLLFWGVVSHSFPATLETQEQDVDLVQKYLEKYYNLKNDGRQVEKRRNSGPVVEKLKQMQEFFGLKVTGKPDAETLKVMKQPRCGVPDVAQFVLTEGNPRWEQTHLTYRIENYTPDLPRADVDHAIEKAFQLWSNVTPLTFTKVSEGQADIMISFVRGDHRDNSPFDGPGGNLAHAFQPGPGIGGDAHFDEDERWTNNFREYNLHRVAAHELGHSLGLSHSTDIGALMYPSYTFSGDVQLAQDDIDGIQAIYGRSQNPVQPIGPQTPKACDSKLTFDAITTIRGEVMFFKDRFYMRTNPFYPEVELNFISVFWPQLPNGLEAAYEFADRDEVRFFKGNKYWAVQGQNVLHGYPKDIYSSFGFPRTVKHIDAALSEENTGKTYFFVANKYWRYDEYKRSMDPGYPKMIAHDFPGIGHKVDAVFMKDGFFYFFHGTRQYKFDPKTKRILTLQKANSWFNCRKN
valueType: pIC50
The quantity pIC50 is defined as the negative base-10 logarithm of the molar concentration.

Worked cases, pIC50 given:
> print(dat)
                                   molecule  measured
1  CCC[C@@H]([C@@H](CC(C)C)C(=O)N[C@H](C(=O)Nc1nccs1)[C@H](C)CC/N=C(/N)N[N+](=O)[O-])N(O)C=O      7.62
2  CCC[C@@H]([C@@H](CC1CCCCC1)C(=O)N[C@@H](CCC/N=C(/N)N[N+](=O)[O-])C(=O)Nc1nccs1)N(O)C=O      6.97
3  CC1CCC(C[C@@H](C(=O)N[C@@H](CCC/N=C(/N)N[N+](=O)[O-])C(=O)Nc2nccs2)[C@H](C(C)C)N(O)C=O)CC1 (some centres undefined)      7.07

Next, consider the following molecule.
INPUT: Form field: reported pIC50 of N/C(=N/CCC[C@H](NC(=O)[C@H](CC1CCCCC1)[C@H](CCC(F)(F)F)N(O)C=O)C(=O)Nc1nccs1)N[N+](=O)[O-]
OUTPUT: 6.96

====

Molecular target: Disintegrin and metalloproteinase domain-containing protein 17 (Homo sapiens, UniProt P78536)
Sequence (P78536 whole entry, the tested form may be a part): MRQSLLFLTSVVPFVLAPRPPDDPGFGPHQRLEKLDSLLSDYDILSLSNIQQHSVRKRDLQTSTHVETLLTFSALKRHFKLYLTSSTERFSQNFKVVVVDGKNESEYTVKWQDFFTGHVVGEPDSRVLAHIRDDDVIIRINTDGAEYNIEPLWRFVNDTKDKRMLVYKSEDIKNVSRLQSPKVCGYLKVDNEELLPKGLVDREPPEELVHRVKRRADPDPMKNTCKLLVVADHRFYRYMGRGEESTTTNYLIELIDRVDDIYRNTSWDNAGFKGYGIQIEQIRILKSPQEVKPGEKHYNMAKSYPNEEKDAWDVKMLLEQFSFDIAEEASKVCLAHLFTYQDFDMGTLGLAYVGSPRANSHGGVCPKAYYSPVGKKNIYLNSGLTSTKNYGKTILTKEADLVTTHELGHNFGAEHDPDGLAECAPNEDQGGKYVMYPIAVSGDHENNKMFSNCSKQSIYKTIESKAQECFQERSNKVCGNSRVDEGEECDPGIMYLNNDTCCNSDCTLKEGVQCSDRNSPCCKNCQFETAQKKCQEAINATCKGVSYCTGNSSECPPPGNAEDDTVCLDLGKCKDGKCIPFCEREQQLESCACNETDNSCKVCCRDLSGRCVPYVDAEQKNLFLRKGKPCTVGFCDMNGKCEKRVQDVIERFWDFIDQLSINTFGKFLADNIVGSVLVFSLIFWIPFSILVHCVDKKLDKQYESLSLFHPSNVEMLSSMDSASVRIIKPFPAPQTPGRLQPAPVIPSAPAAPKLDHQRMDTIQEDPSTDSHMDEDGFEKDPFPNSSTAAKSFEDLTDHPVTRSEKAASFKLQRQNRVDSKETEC
valueType: IC50 (nM)
Write it as a number; the unit nM goes unstated.

Worked cases, IC50 given:
> print(dat)
                                   compound  uom  measured
1  CCC[C@@H]([C@@H](CC(C)C)C(=O)N[C@H](C(=O)Nc1nccs1)[C@H](C)CCN=C(N)NS(C)(=O)=O)N(O)C=O   nM         6
2  CCC[C@@H]([C@@H](CC(C)C)C(=O)N[C@H](C(=O)Nc1nccs1)[C@H](C)CC/N=C(/N)N[N+](=O)[O-])N(O)C=O   nM         5
3  CC(C)C[C@@H](C(=O)N[C@H](C(=O)Nc1nccs1)[C@H](C)CC/N=C(/N)NS(C)(=O)=O)[C@H](C)N(O)C=O   nM        12
4  CC(C)C[C@@H](C(=O)N[C@H](C(=O)Nc1nccs1)[C@H](C)CC/N=C(/N)N[N+](=O)[O-])[C@H](C)N(O)C=O   nM         7
5  N/C(=N/CCC[C@H](NC(=O)[C@H](CC1CCCCC1)[C@H](CCC(F)(F)F)N(O)C=O)C(=O)Nc1nccs1)N[N+](=O)[O-]   nM         5

INPUT: Form field: reported IC50 of CC1CCC(C[C@@H](C(=O)N[C@@H](CCCN=C(N)NS(C)(=O)=O)C(=O)Nc2nccs2)[C@H](C(C)C)N(O)C=O)CC1 (stereo not given in full)
OUTPUT: 14

====

Below are IC50 values recorded for Stromelysin-1 (Homo sapiens).
Write it as a number; the unit nM goes unstated.

Worked cases, IC50 given:
> print(dat)
                                    compound  measured
 1  CCC[C@@H]([C@@H](CC(C)C)C(=O)N[C@@H](CCC/N=C(/N)NS(=O)(=O)c1ccccn1)C(=O)Nc1nccs1)N(O)C=O        84
 2  CC(C)C[C@@H](C(=O)N[C@H](C(=O)Nc1nccs1)[C@H](C)CC/N=C(/N)NS(C)(=O)=O)[C@H](CCC(F)(F)F)N(O)C=O        17
 3  CCC[C@@H]([C@@H](CC1CCC(C)CC1)C(=O)N[C@@H](CCC/N=C(/N)N[N+](=O)[O-])C(=O)Nc1nccs1)N(O)C=O (some centres undefined)       200
 4  CCC[C@@H]([C@@H](CC(C)C)C(=O)N[C@H](C(=O)Nc1nccs1)[C@H](C)CC/N=C(/N)N[N+](=O)[O-])N(O)C=O        47
 5  CCC[C@@H]([C@@H](CC1CCC(C)CC1)C(=O)N[C@@H](CCCN=C(N)NS(=O)(=O)c1ccccn1)C(=O)Nc1nccs1)N(O)C=O (some centres undefined)       282
 6  CC(C)C[C@@H](C(=O)N[C@H](C(=O)Nc1nccs1)[C@H](C)CC/N=C(/N)NS(C)(=O)=O)[C@H](C(C)C)N(O)C=O        49
 7  CCC[C@@H]([C@@H](Cc1ccc(C)s1)C(=O)N[C@@H](CCC/N=C(/N)N[N+](=O)[O-])C(=O)Nc1nccs1)N(O)C=O        79
 8  CCC[C@@H]([C@@H](CC1CCCCC1)C(=O)N[C@@H](CCC/N=C(/N)N[N+](=O)[O-])C(=O)Nc1nccs1)N(O)C=O       203
 9  CC(C)C[C@@H](C(=O)N[C@@H](CCC/N=C(/N)N[N+](=O)[O-])C(=O)Nc1nccs1)[C@H](Cc1ccccc1)N(O)C=O        31
10  N/C(=N/CCC[C@H](NC(=O)[C@H](CC1CCCCC1)[C@H](CCC(F)(F)F)N(O)C=O)C(=O)Nc1nccs1)N[N+](=O)[O-]       214

INPUT: Form field: reported IC50 of NC(=NCCC[C@H](NC(=O)[C@H](CC1CCCCC1)[C@H](C1CC1)N(O)C=O)C(=O)Nc1nccs1)N[N+](=O)[O-]
OUTPUT: 1490

INPUT: # repeat for CC(C)C[C@@H](C(=O)N[C@H](C(=O)Nc1nccs1)[C@H](C)CC/N=C(/N)NS(C)(=O)=O)[C@H](C)N(O)C=O
OUTPUT: 169

INPUT: # repeat for CCC[C@@H]([C@@H](Cc1ccc(C)s1)C(=O)N[C@@H](CCC/N=C(/N)NS(=O)(=O)c1ccccn1)C(=O)Nc1nccs1)N(O)C=O
OUTPUT: 218

INPUT: # repeat for CC1CCC(C[C@@H](C(=O)N[C@@H](CCC/N=C(/N)N[N+](=O)[O-])C(=O)Nc2nccs2)[C@H](C(C)C)N(O)C=O)CC1 (some centres undefined)
OUTPUT: 76

====

Target: Stromelysin-1 (Homo sapiens)
Sequence (P08254 whole entry): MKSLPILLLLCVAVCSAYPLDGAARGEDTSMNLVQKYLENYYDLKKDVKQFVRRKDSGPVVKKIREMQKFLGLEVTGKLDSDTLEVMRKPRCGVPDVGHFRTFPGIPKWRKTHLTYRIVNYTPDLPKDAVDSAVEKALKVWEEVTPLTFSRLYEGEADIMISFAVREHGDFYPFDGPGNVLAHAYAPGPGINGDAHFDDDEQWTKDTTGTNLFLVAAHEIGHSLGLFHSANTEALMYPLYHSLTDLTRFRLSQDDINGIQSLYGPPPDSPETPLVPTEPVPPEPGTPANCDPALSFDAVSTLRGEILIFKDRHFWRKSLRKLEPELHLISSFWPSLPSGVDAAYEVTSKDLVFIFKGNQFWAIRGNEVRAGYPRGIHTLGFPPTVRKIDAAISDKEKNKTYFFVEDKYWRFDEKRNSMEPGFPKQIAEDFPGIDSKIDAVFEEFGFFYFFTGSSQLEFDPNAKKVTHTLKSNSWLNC
Experiment: Inhibition potency was determined by fluorescence-based peptide assay against matrix metalloprotease-3
Parameters: species or system Escherichia coli
Overview of reported IC50 across a group of compounds:
Phrase the answer as number then unit, nothing more needed.

> print(dat)
                                   compound  measured
1  CCC[C@@H]([C@@H](CC(C)C)C(=O)N[C@@H](CCC/N=C(/N)N[N+](=O)[O-])C(=O)Nc1nccs1)N(O)C=O     31 nM
2  CC1CCC(C[C@@H](C(=O)N[C@@H](CCCN=C(N)NS(C)(=O)=O)C(=O)Nc2nccs2)[C@H](C(C)C)N(O)C=O)CC1 (stereo partly drawn)    155 nM

Next, consider the following compound.
INPUT: Form field: reported IC50 of CC(C)C[C@@H](C(=O)N[C@H](C(=O)Nc1nccs1)[C@H](C)CC/N=C(/N)N[N+](=O)[O-])[C@H](C)N(O)C=O
OUTPUT: 273 nM

====

Molecular target: Disintegrin and metalloproteinase domain-containing protein 17 (Homo sapiens)
Overview of reported pIC50 across a group of molecules:
The quantity pIC50 is defined as the negative base-10 logarithm of the molar concentration.

> print(dat)
                                   molecule                             assayedsystem  measured
1  CCC[C@@H]([C@@H](Cc1ccc(C)s1)C(=O)N[C@@H](CCC/N=C(/N)NS(=O)(=O)c1ccccn1)C(=O)Nc1nccs1)N(O)C=O  Disintegrin and metalloproteinase domain-containing protein 17 (Homo sapiens)      7.96
2  CC(C)C[C@@H](C(=O)N[C@@H](CCC/N=C(/N)NS(C)(=O)=O)C(=O)Nc1nccs1)[C@H](C(C)C)N(O)C=O  Disintegrin and metalloproteinase domain-containing protein 17 (Homo sapiens)      7.38
3  CCC[C@@H]([C@@H](CC(C)C)C(=O)N[C@@H](CCCN=C(N)NS(C)(=O)=O)C(=O)Nc1nccs1)N(O)C=O  Disintegrin and metalloproteinase domain-containing protein 17 (Homo sapiens)      8.10
4  CCC[C@@H]([C@@H](CC(C)C)C(=O)N[C@@H](CCC/N=C(/N)NS(=O)(=O)c1ccccn1)C(=O)Nc1nccs1)N(O)C=O  Disintegrin and metalloproteinase domain-containing protein 17 (Homo sapiens)      8.22
5  CCC[C@@H]([C@@H](CC1CCC(C)CC1)C(=O)N[C@@H](CCCN=C(N)NS(=O)(=O)c1ccccn1)C(=O)Nc1nccs1)N(O)C=O (some centres not stated)  Disintegrin and metalloproteinase domain-containing protein 17 (Homo sapiens)      8.22

INPUT: Form field: reported pIC50 of CCC[C@@H]([C@@H](CC1CCCCC1)C(=O)N[C@@H](CCC/N=C(/N)N[N+](=O)[O-])C(=O)Nc1nccs1)N(O)C=O
OUTPUT: 8.10

INPUT: # repeat for NC(=NCCC[C@H](NC(=O)[C@H](CC1CCCCC1)[C@H](C1CC1)N(O)C=O)C(=O)Nc1nccs1)N[N+](=O)[O-]
OUTPUT: 7.66
